This listing pairs molecules with measured melting point.
Observation type: melting point

Molecule	Reported measurement
Cl.NC(CO)(CCCc1ccc(Sc2cccc(OCc3ccccc3)c2)cc1Cl)CP(=O)(O)O (stereo not shown) [Example 286]	98 to 101 °C
NC(/C=C(\F)P(=O)(O)O)CCc1ccc(Sc2cccc(OCc3ccccc3)c2)cc1Cl (stereo not shown) [Example 254]	288 to 290 °C
CC(N)(CCCc1ccc(Sc2cccc(OCc3ccccc3)c2)cc1Cl)COP(=O)(O)O (single isomer, unassigned; (-)) [Example 240]	200 to 203 °C
NC(/C=C/P(=O)(O)O)(CO)CCc1ccc(Sc2cccc(OCc3ccccc3)c2)cc1Cl (stereo not shown) [Example 267]	245 to 248 °C
NC(/C=C/P(=O)(O)O)(CO)CCCc1ccc(Sc2cccc(OCc3ccccc3)c2)cc1Cl (stereo not shown) [Example 263]	243 to 246 °C
CC(N)(/C=C/P(=O)(O)O)CCCc1ccc(Sc2cccc(OCc3ccccc3)c2)cc1Cl (racemic) [Example 261]	243 to 245 °C
CC(N)(CCCc1ccc(Sc2cccc(OCc3ccccc3)c2)cc1Cl)CCP(=O)(O)O (stereo not shown) [Example 260]	195 to 197 °C
